test system: Escherichia coli TOP10; test: shrunken log2 fold change of peptide-encoding DNA abundance (4.5 h post-induction vs induction); higher = less antimicrobial activity (less host growth inhibition); conditions: time post-induction: 4.5 h; library: site-saturation at positions 5, 18, 19, 20
Label y when shrunken log2 fold change >= -0.1; otherwise n.

Please review the entries below; each comes with its answer.
> print(dat)
            query.sequence  label.value
1  RRIRYRPPRLPRPRPRPGWDPRP            y
2  RRIRDRPPRLPRPRPRPSDFPRP            y
3  RRIRERPPRLPRPRPRPQDHPRP            y

Query sequence follows.
For this sequence, is measured shrunken log2 fold change -0.1 or higher? `RRIRDRPPRLPRPRPRPFHSPRP`
n

----------
Documented shrunken log2 fold change across a set of sequences
test system: Escherichia coli TOP10; assay: shrunken log2 fold change of peptide-encoding DNA abundance (4.5 h post-induction vs induction); higher = less antimicrobial activity (less host growth inhibition); details: time post-induction: 4.5 h; library: site-saturation at positions 5, 18, 19, 20
Lab note: record just the number, no unit beside it.

Below, each entry is followed by its recorded shrunken log2 fold change result.
> print(dat)
            query.sequence  recorded.measurement
1  RRIRVRPPRLPRPRPRPHPVPRP                -0.201
2  RRIRARPPRLPRPRPRPKDEPRP                 0.687
3  RRIRERPPRLPRPRPRPYMDPRP                -0.534

Kindly note the recorded shrunken log2 fold change for `RRIRCRPPRLPRPRPRPCKPPRP` , which is -0.216

----------
system: Escherichia coli TOP10; assay: shrunken log2 fold change of peptide-encoding DNA abundance (4.5 h post-induction vs induction); higher = less antimicrobial activity (less host growth inhibition); conditions: time post-induction: 4.5 h; library: site-saturation at positions 5, 18, 19, 20
experimental_endpoint: shrunken log2 fold change
// keep it numeric: no unit symbol after the value

Examples from the recorded data:
> print(dat)
             query.sequence      experimental.endpoint  recorded.measurement
 1  RRIRYRPPRLPRPRPRPFANPRP  shrunken log2 fold change                -0.245
 2  RRIRVRPPRLPRPRPRPPMTPRP  shrunken log2 fold change                 0.209
 3  RRIRNRPPRLPRPRPRPYITPRP  shrunken log2 fold change                -0.292
 4  RRIRVRPPRLPRPRPRPCWIPRP  shrunken log2 fold change               -0.0862
 5  RRIRQRPPRLPRPRPRPTVWPRP  shrunken log2 fold change                 0.339
 6  RRIRWRPPRLPRPRPRPYDVPRP  shrunken log2 fold change               -0.0559
 7  RRIRSRPPRLPRPRPRPESEPRP  shrunken log2 fold change                0.0793
 8  RRIRNRPPRLPRPRPRPPQAPRP  shrunken log2 fold change                0.0708
 9  RRIRKRPPRLPRPRPRPWFHPRP  shrunken log2 fold change                -0.838
10  RRIRMRPPRLPRPRPRPYYNPRP  shrunken log2 fold change                -0.709

For this sequence ( `RRIRRRPPRLPRPRPRPNTAPRP` ), measured shrunken log2 fold change is 0.0812

Per the record, `RRIRTRPPRLPRPRPRPNPHPRP` has shrunken log2 fold change of -0.177

For reference, reported shrunken log2 fold change for `RRIRIRPPRLPRPRPRPEGVPRP` stands at 0.115

Entry `RRIRYRPPRLPRPRPRPRWRPRP` — recorded shrunken log2 fold change = 0.585

GET /value?item= `RRIRCRPPRLPRPRPRPLIFPRP` &field=shrunken log2 fold change returns -0.514

----------
system: Escherichia coli TOP10; assay: shrunken log2 fold change of peptide-encoding DNA abundance (4.5 h post-induction vs induction); higher = less antimicrobial activity (less host growth inhibition); conditions: time post-induction: 4.5 h; library: site-saturation at positions 5, 18, 19, 20
experimental_endpoint: shrunken log2 fold change
# answer = number (no unit)

Below are worked cases with known answers.
> print(dat)
            query.sequence           tested.system  recorded.measurement
1  RRIRHRPPRLPRPRPRPCYNPRP  Escherichia coli TOP10                -0.427
2  RRIRIRPPRLPRPRPRPEEHPRP  Escherichia coli TOP10                 0.023
3  RRIRPRPPRLPRPRPRPYMDPRP  Escherichia coli TOP10                -0.447

shrunken log2 fold change in this record for `RRIRARPPRLPRPRPRPLEDPRP` : 0.241

Query `RRIRHRPPRLPRPRPRPNPDPRP` yields shrunken log2 fold change of -0.0353

Quick note, shrunken log2 fold change for `RRIRRRPPRLPRPRPRPDSNPRP` landed at 0.0666

For reference, reported shrunken log2 fold change for `RRIRQRPPRLPRPRPRPRAEPRP` stands at 0.292

shrunken log2 fold change recorded for this sequence, `RRIRDRPPRLPRPRPRPRKTPRP` , is 0.379

Kindly note the recorded shrunken log2 fold change for `RRIRYRPPRLPRPRPRPPSMPRP` , which is -0.692

// shrunken log2 fold change value for `RRIRHRPPRLPRPRPRPECFPRP` : -0.0176

Note to self: shrunken log2 fold change recorded for `RRIRDRPPRLPRPRPRPLPSPRP` was -0.0341

----------
A collection of sequences and their measured shrunken log2 fold change
system: Escherichia coli TOP10; experiment: shrunken log2 fold change of peptide-encoding DNA abundance (4.5 h post-induction vs induction); higher = less antimicrobial activity (less host growth inhibition); settings: time post-induction: 4.5 h; library: site-saturation at positions 5, 18, 19, 20
Number, no unit, nothing else.

> print(dat)
             query.sequence  recorded.measurement
 1  RRIRPRPPRLPRPRPRPGKCPRP                -0.125
 2  RRIRCRPPRLPRPRPRPHRTPRP                -0.209
 3  RRIRMRPPRLPRPRPRPYDHPRP                -0.141
 4  RRIRYRPPRLPRPRPRPPAGPRP                 0.322
 5  RRIRWRPPRLPRPRPRPIIHPRP                -0.463
 6  RRIRLRPPRLPRPRPRPRKMPRP                 0.281
 7  RRIRGRPPRLPRPRPRPTNSPRP                 0.319
 8  RRIRLRPPRLPRPRPRPMNIPRP                -0.504
 9  RRIRDRPPRLPRPRPRPVDEPRP                -0.023
10  RRIRWRPPRLPRPRPRPDCYPRP                 0.148

Reported shrunken log2 fold change for `RRIRLRPPRLPRPRPRPMAMPRP` was 0.0591

The reported value for `RRIRGRPPRLPRPRPRPKQWPRP` in terms of shrunken log2 fold change is 0.28

Reported shrunken log2 fold change for `RRIRERPPRLPRPRPRPSIRPRP` was -0.242

Consider `RRIRNRPPRLPRPRPRPLQLPRP` . Its measured shrunken log2 fold change is -0.288

GET /value?item= `RRIRERPPRLPRPRPRPEHNPRP` &field=shrunken log2 fold change returns -0.203

----------
tested on: Escherichia coli TOP10; test: shrunken log2 fold change of peptide-encoding DNA abundance (4.5 h post-induction vs induction); higher = less antimicrobial activity (less host growth inhibition); conditions: time post-induction: 4.5 h; library: site-saturation at positions 5, 18, 19, 20;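 note: peptides expressed intracellularly from a pBAD plasmid library in pooled LB shake-flask culture, induced with 0.3% L-arabinose, DNA abundance read by NGS, three biological replicates, DESeq2 with apeglm shrinkage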
experimental_endpoint: shrunken log2 fold change
Could you keep your reply to the number by itself?

Illustrative cases are given below, each with its answer.
> print(dat)
            query.sequence      experimental.endpoint  recorded.measurement
1  RRIRYRPPRLPRPRPRPFRGPRP  shrunken log2 fold change                -0.303
2  RRIRARPPRLPRPRPRPSKEPRP  shrunken log2 fold change                 0.103
3  RRIRWRPPRLPRPRPRPHDSPRP  shrunken log2 fold change                -0.122
4  RRIRHRPPRLPRPRPRPTTSPRP  shrunken log2 fold change                -0.146
5  RRIRLRPPRLPRPRPRPQLGPRP  shrunken log2 fold change               -0.0132
6  RRIRARPPRLPRPRPRPHEEPRP  shrunken log2 fold change                 0.793

`RRIRDRPPRLPRPRPRPIATPRP` yielded shrunken log2 fold change of -0.0393

Looking up `RRIRLRPPRLPRPRPRPRKPPRP` , I see its shrunken log2 fold change listed as 0.751

For reference, reported shrunken log2 fold change for `RRIRKRPPRLPRPRPRPERRPRP` stands at 0.337

shrunken log2 fold change recorded for this sequence, `RRIRHRPPRLPRPRPRPFRIPRP` , is -0.127
